- System: NCI/ADR-RES ovarian
- Assay explanation: NCI tumour cell line growth inhibition, 48 h
Measurement label: TGI

Completed entries (count: 4):
{"columns": ["Compound", "Result"],
 "data": [
  ["O=C1/C(=C/c2ccc(F)c(F)c2)CN(C(=O)C(Cl)Cl)C/C1=C\\c1ccc(F)c(F)c1", "0.868 µM"],
  ["C=C1C(=O)O[C@H]2[C@H]1CC/C(Cn1cc(Cc3c[nH]c4ccccc34)nn1)=C\\CC[C@@]1(C)O[C@@H]21", "21.9 µM"],
  ["O=C(O)C1CCN(Cc2oc(CO)cc(=O)c2O)C1 (stereo unspecified)", "> 100 µM"],
  ["O=P(O)(O)OCC1OC(n2cnc3c(NCc4ccco4)ncnc32)C(O)C1O (stereo unspecified)", "> 53.7 µM"]
]}

Query TGI on NCI/ADR-RES ovarian for COc1cccc2c1C(=O)c1c(O)c3c(c(O)c1C2=O)C[C@@](O)(C(=O)CN1CCOCC1)C[C@@H]3OC1CC(N)C(O)C(C)O1 (stereo partly specified)
> 100 µM

Quick check: TGI on NCI/ADR-RES ovarian, item `Oc1[nH]c(N=C2N=c3ccccc3=N2)c2ccccc12` ?
30.1 µM

Return TGI measured with NCI/ADR-RES ovarian given this compound: COc1cc(S(=O)(=O)Nc2ccc(-c3csc(N4C(=O)C(Cl)C4c4cccc(Oc5ccccc5)c4)n3)cc2)ccc1Cl (stereo unspecified)
> 100 µM

Quick check: TGI on NCI/ADR-RES ovarian, item `Cc1ccc(S(=O)(=O)/N=C2/N(C)CCCS2(=O)=O)cc1` ?
> 100 µM

Reported TGI for NCI/ADR-RES ovarian, given `CCOc1cc(C(=O)O)c2c(ccc3ccc(OC)c(OC)c32)c1OC` ?
> 100 µM

Provide the documented TGI with NCI/ADR-RES ovarian as the system for `C[N+](C)(C)CCOC(=O)/C=C/c1cnc[nH]1`
> 500 µM

Record lookup: for NCI/ADR-RES ovarian, what TGI belongs to O=C1C(C(c2ccc([N+](=O)[O-])cc2)N2CCOCC2)=C(O)C(c2ccccc2)N1c1ccccc1 (stereo unspecified) ?
> 10 µM

Request - read-out TGI | tested on NCI/ADR-RES ovarian | compound `CSc1c2c(C)n[nH]c2nn1-c1ccccc1`
> 100 µM

Entry CCCCCCCCCC(O)CC(=O)c1c(O)cccc1O (stereo unspecified) , system NCI/ADR-RES ovarian: what TGI was measured?
38.5 µM

NCI/ADR-RES ovarian / TGI / `CC(C(=O)NCCNC(=O)CCC(=O)N(C)O)C(=O)NCCNC(=O)CCC(=O)N(C)O` : value?
> 100 µM
